Biological target: RING1B-BMI1 (Homo sapiens)
Sequence (Q99496 1-336): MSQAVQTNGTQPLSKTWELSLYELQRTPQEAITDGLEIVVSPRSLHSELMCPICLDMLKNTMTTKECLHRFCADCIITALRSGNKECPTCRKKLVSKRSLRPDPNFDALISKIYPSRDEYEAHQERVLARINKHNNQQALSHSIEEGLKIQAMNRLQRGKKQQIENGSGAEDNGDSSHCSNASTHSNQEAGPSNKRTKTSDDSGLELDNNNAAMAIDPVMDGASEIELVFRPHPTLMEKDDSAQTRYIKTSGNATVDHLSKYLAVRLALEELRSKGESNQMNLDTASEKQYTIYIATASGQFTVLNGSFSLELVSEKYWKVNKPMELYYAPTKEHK
Sequence (P35226 1-326 partner): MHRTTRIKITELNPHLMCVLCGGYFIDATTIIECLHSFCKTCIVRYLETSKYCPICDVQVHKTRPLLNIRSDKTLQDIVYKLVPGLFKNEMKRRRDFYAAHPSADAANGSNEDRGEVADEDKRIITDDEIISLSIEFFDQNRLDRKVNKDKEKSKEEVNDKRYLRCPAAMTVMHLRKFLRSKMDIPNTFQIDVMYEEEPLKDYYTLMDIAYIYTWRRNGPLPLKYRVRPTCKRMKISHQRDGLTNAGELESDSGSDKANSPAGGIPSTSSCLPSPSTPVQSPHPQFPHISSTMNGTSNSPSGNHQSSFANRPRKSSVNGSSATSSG
Assay: ITC binding of COMPOUND 1 to RING1B-BMI1
Conditions: binds directly to Ring1B-Bmi1, FIG. 1
Test Readout: Kd
A complete answer gives the number and then names the unit.

Item: CC(C)c1c(-c2cccc3[nH]ccc23)[nH]c(C(=O)O)c1-c1c(Cl)ccc2[nH]ccc12 | Kd: 2600 nM
